procedureSummary: qHTS Assay for Lipid Storage Modulators (AID 1519)
appliedConditions: Drosophila S3 cells, BODIPY lipid droplet/cell ratio, laser cytometry; measured here: cell count channel max response; cells loaded with oleic acid
Inconclusive results are not listed.
# max response values compiled below
Answer format: numeric, % implied, no suffix.

compound: NCC1O[C@@H](OC2C(N)CC(N)C(O)C2O[C@@H]2OC(CO)C(O)C2O)C(N)C(O)C1O (some centres undefined)
quantityName: max response
val: 5.17
--
compound: COc1cccc(/C=C/C(=O)O)c1C(C)C
quantityName: max response
val: 13
--
compound: Cc1c(O)c(=O)n(-c2ccccc2)n1C
quantityName: max response
val: 20.7
--
compound: COc1ccc2c(=O)c(CC(=O)O)coc2c1
quantityName: max response
val: 9.56
--
compound: C[C@@]1(O)CCOC(=O)C1
quantityName: max response
val: -3.45
--
compound: Nc1ncnc2c1nc(Br)n2C1CC(O)C(CO)O1 (centres undefined)
quantityName: max response
val: 9.06
--
compound: CC(=O)OCC(=O)[C@@]1(O)CCC2C3CCC4=CC(=O)CC[C@@]4(C)[C@]3(F)C(O)C[C@]21C (some centres undefined)
quantityName: max response
val: 21.1
--
compound: COc1cc(-c2coc3cc(OC)c(OC)c(OC)c3c2=O)cc(OC)c1OC
quantityName: max response
val: 17.7

*Q* Request the reported max response associated with Cc1onc(-c2ccccc2Cl)c1C(=O)N[C@H]1C(=O)N2[C@H]1SC(C)(C)[C@H]2C(=O)O
*A* 6.25

*Q* Same question, CN[C@H]1[C@@H](O)[C@@H](NC)[C@@H]2O[C@@]3(O)C(=O)C[C@@H](C)O[C@H]3O[C@H]2[C@H]1O this time
*A* 1.41

*Q* Same question, CCC(=O)OCC(=O)[C@@]1(OC(=O)CC)[C@H](C)C[C@@H]2[C@@H]3[C@H]([C@@H](O)C[C@@]21C)[C@]1(C)C=CC(=O)C=C1C[C@@H]3Cl this time
*A* -9.62

*Q* Same question, C=C(C)C1COc2cc3oc(=O)ccc3cc2O1 (centres undefined) this time
*A* 12.5

*Q* Same question, CCCCCCCCCc1ccc(OCCOCCOCCOCCOCCOCCOCCOCCOCCO)cc1 this time
*A* 4.66

Origin of values: PubChem BioAssay (NCATS)
